The measurements presented in this section are drawn from patent US11878973B2.

Overview of reported IC50 across a group of molecules:
# tested target: UniProt:Q14191
# Sequence (Q14191 517-1238): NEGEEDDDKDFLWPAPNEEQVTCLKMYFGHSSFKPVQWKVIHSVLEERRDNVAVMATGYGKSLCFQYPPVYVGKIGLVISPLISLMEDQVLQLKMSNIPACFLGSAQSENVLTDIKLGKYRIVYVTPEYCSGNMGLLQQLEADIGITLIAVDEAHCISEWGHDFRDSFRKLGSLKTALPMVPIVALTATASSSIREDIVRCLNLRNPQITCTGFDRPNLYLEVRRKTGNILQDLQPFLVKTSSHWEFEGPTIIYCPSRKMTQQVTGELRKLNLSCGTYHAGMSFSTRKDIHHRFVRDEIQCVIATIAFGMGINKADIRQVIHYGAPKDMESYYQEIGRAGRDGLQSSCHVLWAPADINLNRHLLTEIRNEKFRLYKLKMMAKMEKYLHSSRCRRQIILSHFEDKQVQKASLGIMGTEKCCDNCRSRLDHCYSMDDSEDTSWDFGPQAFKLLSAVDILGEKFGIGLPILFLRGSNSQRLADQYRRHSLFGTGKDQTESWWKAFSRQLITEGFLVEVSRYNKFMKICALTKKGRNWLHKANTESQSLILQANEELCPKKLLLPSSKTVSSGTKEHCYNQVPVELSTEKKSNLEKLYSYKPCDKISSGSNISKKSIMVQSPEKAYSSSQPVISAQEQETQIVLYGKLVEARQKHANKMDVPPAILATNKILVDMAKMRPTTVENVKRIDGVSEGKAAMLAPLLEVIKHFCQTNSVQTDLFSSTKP
# assay text: In vitro enzymatic activity assay on WRN helicase (DNA dependent ATPase assay, ADP-Glo)
# Assay type: biochemical
# stated conditions: geometric means of at least 2 determinations; read-out: WRN ATPase Activity (IC50)

| molecule | IC50 |
| --- | --- |
| CCc1c(N2CCN(C(=O)c3nccc(Cl)c3O)CC2)c(=O)n2nc(N3CCOCC3)nc2n1CC(=O)Nc1ccc(C(F)(F)F)cc1C [Example 9] | 60 nM |
| CCc1c(N2CCN(C(=O)c3nccc(Cl)c3O)CC2)c(=O)n2nc(N3CCOCC3)nc2n1CC(=O)Nc1cc(F)c(C(F)(F)F)cc1C [Example 6] | 70 nM |
| CCc1c(N2CCN(C(=O)c3ncnc(C)c3O)C[C@@H]2C)c(=O)n2nc(C3=CCOCC3)nc2n1CC(=O)Nc1ccc(C(F)(F)F)cc1Cl [Example 87] | 110 nM |
| CCc1c(N2CCN(C(=O)c3ncccc3O)CC2)c(=O)n2nc(C3=CCCCN3)nc2n1CC(=O)Nc1ccc(C(F)(F)F)cc1C [Example 110] | 360 nM |
| CCc1c(N2CCN(C(=O)c3ncccc3O)CC2)c(=O)n2nc(C3=CC[C@H](OC)CC3)nc2n1CC(=O)Nc1ccc(C(F)(F)F)cc1C (single isomer, unassigned) [Example 80b] | 80 nM |
| CCc1c(N2CCN(C(=O)c3nccc(Cl)c3O)CC2)c(=O)n2nc(C3=CCCCO3)nc2n1CC(=O)Nc1ccc(C(F)(F)F)nc1Cl [Example 30] | 140 nM |
| CCc1c(N2CCN(S(=O)(=O)c3ncccc3O)CC2)c(=O)n2nc(C3=CCOCC3)nc2n1CC(=O)Nc1ccc(C(F)(F)F)cc1Cl [Example 137] | 50 nM |
| CCc1c(N2CCN(C(=O)c3nccc(Cl)c3O)CC2)c(=O)n2nc(C3=CCOCC3)nc2n1CC(=O)Nc1ccc(C(F)(F)F)nc1C [Example 36] | 930 nM |
| CCc1c(N2CCN(C(=O)c3ncccc3O)CC2)c(=O)n2nc(C3=CCOCC3)nc2n1CC(=O)Nc1cc(Cl)c(C(F)(F)F)cc1C [Example 69] | 40 nM |
| CCc1c(N2CCN(C(=O)c3ncnc(C)c3O)CC2)c(=O)n2nc(C3=CCOCC3)nc2n1CC(=O)Nc1cc(F)c(C(F)(F)F)cc1C [Example 50] | 30 nM |
| CCc1c(N2CCN(C(=O)c3nc(C)ccc3O)CC2)c(=O)n2nc(C3=CCOCC3)nc2n1CC(=O)Nc1ccc(C(F)(F)F)cc1 [Example 74] | 50 nM |
| CCc1c(N2CCN(C(=O)c3ncccc3O)CC2)c(=O)n2nc(N3CCCC3)nc2n1CC(=O)Nc1ccc(C(F)(F)F)cc1C [Example 17] | 140 nM |
| CCc1c(N2CCN(C(=O)c3ncccc3O)CC2)c(=O)n2nc(C3=CNCCC3)nc2n1CC(=O)Nc1ccc(C(F)(F)F)cc1C [Example 109] | 1180 nM |
| CCc1c(N2CCN(C(=O)c3ncccc3O)CC2)c(=O)n2nc(C3=CCOCC3)nc2n1CC(=O)Nc1ccc(Cl)cc1Cl [Example 101] | 100 nM |
| CCc1c(N2CCN(C(=O)c3ncccc3O)CC2)c(=O)n2nc(N3CCCC(F)C3)nc2n1CC(=O)Nc1ccc(C(F)(F)F)cc1Cl (racemic) [Example 15] | 110 nM |
| Cc1c(N2CCN(C(=O)c3ncccc3O)[C@H](C)C2)c(=O)n2nc(C3=CCOCC3)nc2n1CC(=O)Nc1ccc(C(F)(F)F)cc1 [Example 89] | 40 nM |
| CCc1c(N2CCN(C(=O)c3ncccc3O)CC2)c(=O)n2nc(N3CCCC(F)C3)nc2n1CC(=O)Nc1cc(Cl)c(C(F)(F)F)cc1C (racemic) [Example 13] | 30 nM |
| CCc1c(N2CCN(C(=O)c3ncnc(C)c3O)CC2)c(=O)n2nc(C3=CCOCC3)nc2n1CC(=O)Nc1ccc(S(F)(F)(F)(F)F)cc1Cl [Example 51] | 40 nM |
| CCc1c(N2CCN(C(=O)c3ncnc(C)c3O)[C@H]3CC[C@@H]32)c(=O)n2nc(C3=CCOCC3)nc2n1CC(=O)Nc1ccc(C(F)(F)F)cc1Cl [Example 125] | 30 nM |
| CCc1c(N2CCN(C(=O)c3ncccc3O)CC2)c(=O)n2nc(N3CCC[C@@H](F)C3)nc2n1CC(=O)Nc1ccc(C(F)(F)F)cc1C [Example 14a] | 80 nM |
| CCc1c(N2CCN(C(=O)c3ncnc(C)c3O)CC2)c(=O)n2nc(C3=CCOCC3)nc2n1CC(=O)Nc1ccc(C(F)(F)F)cc1Br [Example 108] | 80 nM |
| CCc1c(N2CCN(C(=O)c3ncnc(C)c3O)[C@@H]3CC[C@H]32)c(=O)n2nc(C3=CCOCC3)nc2n1CC(=O)Nc1ccc(C(F)(F)F)cc1Cl [Example 124] | 360 nM |
| CCc1c(N2CCN(C(=O)c3ncnc(C)c3O)[C@H](C)[C@H]2C)c(=O)n2nc(C3=CCOCC3)nc2n1CC(=O)Nc1ccc(C(F)(F)F)cc1Cl [Example 119] | 160 nM |
| CCc1c(N2CCN(C(=O)c3nccc(C)c3O)CC2)c(=O)n2nc(C3=CCOCC3)nc2n1CC(=O)Nc1ccc(C(F)(F)F)cc1C [Example 66] | 40 nM |
